- test_description: Acute toxicity in rodents, rat
- run_conditions: in vivo, ip, read-out: LD50 (95% fiducial limits)
property: LD50 (mg/kg)

1) O=C(Cc1ccccc1Nc1c(Cl)cccc1Cl)OCCCCO[N+](=O)[O-] 237
